System: MALME-3M melanoma
assay notes: NCI-60 one-dose screen, 48 h
cond: 10 µM unless noted
About 83,000 compounds went through this panel and 20% of them were active in at least one assay; those are over-represented in the sample as a whole. Calls of active or inactive are those of the source. The calls were made as follows: active = growth percent below 10; inactive = the rest.
The reply should name one outcome from active, inactive

COc1ccc2[nH]cc(-c3nc(-c4c[nH]c5c(Cl)nccc45)cs3)c2c1 = inactive
COc1ccc2c(c1)c(/C(O)=C1\COC(=O)C1=O)cn2Cc1ccc(F)cc1 = inactive
CN(CCCNC(=O)CCOCCOCCOCCNC(=O)Cc1ccc2ccc3cccc4ccc1c2c34)CCCNc1cc(-c2ccc3ccccc3c2)nc2ccccc12 = active
COc1ccc(C(=O)/C=C/c2ccc(N3CCCCC3)cc2)cc1OC = inactive
O=S(=O)(Oc1ccc(Br)cc1)c1ccc(Cl)cc1 = inactive

# lookup: test call for C=C(C)[C@@H]1CC[C@]2(C(N)=O)CC[C@]3(C)[C@H](CC[C@@H]4[C@@]5(C)CC[C@H](OCCC#N)C(C)(C)[C@@H]5CC[C@]43C)[C@@H]12
inactive

Look up the recorded call for Ic1ccccc1I in this test.
inactive

Recorded test call requested for O=C(/C=C/c1ccc(Cl)cc1)c1cccc(OCCCOc2cccc(C(=O)/C=C/c3ccc(Cl)cc3)c2)c1
inactive

Name the outcome recorded for O=C(Nc1cc(Cl)ccc1O)c1cccc(Nc2ccnc(C(F)(F)F)c2)c1 in the assay.
inactive

Give the logged outcome of this assay for the following compound: Cc1c(CN)cc(-c2ccc(Cl)cc2)n1-c1ccccc1
inactive

Any idea what this test logged for C#CC#CC#CC#CC#CC#CC#CC#CC[C@@H]1OC[C@@H](COC(=O)O[C@@H](C(=O)O[C@H]2C[C@@]3(O)[C@@H](OC(=O)c4ccccc4)[C@@H]4[C@]5(OC(C)=O)CO[C@@H]5C[C@H](O)[C@@]4(C)C(=O)[C@H](OC(C)=O)C(=C2C)C3(C)C)[C@@H](NC(=O)c2ccccc2)c2ccccc2)O1 ?
inactive

Field: outcome | Entry: CCn1cc(CNc2ccc(C(=O)Nc3cc4cc(OC)c(OC)cc4c(C)n3)cc2)cn1
inactive

Answer briefly: the call reported for CN1CCN(Cc2ccc(NC(=O)c3cncc(C#Cc4cnc(N)c5ncccc45)c3)cc2C(F)(F)F)CC1 in this assay.
active

Tell me the assay call for C=C1CC[C@@H]2[C@](C)(COC(C)=O)[C@H](OC(C)=O)CC[C@@]2(C)[C@@H]1CC(Nc1ccc(S(=O)(=O)NC(C)=O)cc1)C1=CCOC1=O (stereo partly specified) please.
active

Call for entry Cc1ccc(-c2nc3nc(-c4ccccc4)nc(N4CCCN(S(C)(=O)=O)CC4)c3o2)cc1 :
inactive
